Entries and their IC50
- TEST_SYSTEM: IL-17A/F (Homo sapiens, UniProt Q16552+Q96PD4)
- Sequence (Q16552 24-155): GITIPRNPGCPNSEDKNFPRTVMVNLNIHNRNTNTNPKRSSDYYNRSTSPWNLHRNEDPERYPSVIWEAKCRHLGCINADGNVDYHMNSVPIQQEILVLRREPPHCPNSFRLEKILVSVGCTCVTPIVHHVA
- Sequence (Q96PD4 31-163): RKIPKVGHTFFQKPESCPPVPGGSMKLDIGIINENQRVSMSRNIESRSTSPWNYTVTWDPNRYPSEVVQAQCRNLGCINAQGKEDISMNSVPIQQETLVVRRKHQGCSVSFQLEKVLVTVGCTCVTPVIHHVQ
- PROTOCOL_TEXT: IL-17A/F HEK-Blue cell assay (SEAP reporter)
- CONDITION_CONTEXT: HEK-Blue IL-17A reporter cells, IL17A/F 5 ng/mL, 20 hours, SEAP read at A630; read-out: HEK-Blue IL17AF (IC50 for IL-17A/F inhibition)

>>> result("CCn1nccc1C(=O)N[C@H](c1cn2nc(C[C@H]3C[C@@H](C(F)(F)F)CNC3=O)c(C3CCOCC3)nc2n1)[C@H]1C[C@H]2C[C@H]2C1")
"> 1000 nM"
>>> result("O=C(N[C@H](c1cn2nc(C[C@H]3C[C@@H](C(F)(F)F)CNC3=O)c(C3CCOCC3)nc2n1)C1CCC(F)(F)CC1)c1nonc1C1CC1")
"> 1000 nM"
>>> result("O=C(N[C@H](c1cn2nc(C[C@H]3C[C@@H](C(F)(F)F)CNC3=O)c(C3CCOCC3)nc2n1)C1CCC(F)(F)CC1)c1ccnn1CC(F)F")
"100 to 1000 nM"
>>> result("CCc1nonc1C(=O)N[C@H](c1cn2nc(C[C@H]3C[C@@H](C(F)(F)F)CNC3=O)c(N3CCN(C)CC3)nc2n1)C1CCC(F)(F)CC1")
"> 1000 nM"
>>> result("CCn1nccc1C(=O)N[C@H](c1cn2nc(CC3C[C@@H](C(F)(F)F)CNC3=O)c(N3CCOCC3)nc2n1)[C@H]1CCCC(F)(F)C1 (single isomer, unassigned) [Compound 91]")
"100 to 1000 nM"
>>> result("CCn1nccc1C(=O)N[C@H](c1cn2nc(CC3C[C@H](C(F)(F)F)CNC3=O)c(N3CCOCC3)nc2n1)C1CCC(F)(F)CC1 (single isomer, unassigned) [Compound 54]")
"100 to 1000 nM"

[in] Given the compound O=C(N[C@H](c1cn2nc(C[C@H]3C[C@@H](C(F)(F)F)CNC3=O)c(C3CCOCC3)nc2n1)C1CCC(F)(F)CC1)c1ccnn1CCN1CCOCC1 , what is its reported IC50?
[out] > 1000 nM

[in] Given the compound CCc1nonc1C(=O)N[C@H](c1cn2nc(C[C@H]3C[C@@H](C(F)(F)F)CNC3=O)c(C3CCOCC3)nc2n1)[C@H]1C[C@H](C2CC2)C1 , what is its reported IC50?
[out] > 1000 nM

[in] Given the compound CCn1nccc1C(=O)N[C@H](c1cn2nc(C[C@H]3C[C@@H](C(F)(F)F)CNC3=O)c([C@H]3CN(C)CCO3)nc2n1)C1CCC(F)(F)CC1 (single isomer, unassigned) , what is its reported IC50?
[out] > 1000 nM

[in] Given the compound CCn1nccc1C(=O)N[C@H](c1cn2nc(CC3C[C@@H](C(F)(F)F)CNC3=O)c(N3C[C@H]4C[C@@H]3CO4)nc2n1)[C@H]1CC[C@H](C)CC1 (single isomer, unassigned) [Compound 107] , what is its reported IC50?
[out] 100 to 1000 nM

[in] Given the compound CCn1ncnc1C(=O)N[C@H](c1cn2nc(C[C@H]3C[C@@H](C(F)(F)F)CNC3=O)c(C3CCOCC3)nc2n1)C1CCC(F)(F)CC1 , what is its reported IC50?
[out] > 1000 nM
